Numbers sourced from patent US20210388087A1.

Target: T1, Human CD3eg linker (human)
T1 construct: Single chain: epsilon and gamma subunits of human CD3 joined by a 29-mer linker, Flag-tag at the C-terminus; also called recombinant human CD3
T1 chain: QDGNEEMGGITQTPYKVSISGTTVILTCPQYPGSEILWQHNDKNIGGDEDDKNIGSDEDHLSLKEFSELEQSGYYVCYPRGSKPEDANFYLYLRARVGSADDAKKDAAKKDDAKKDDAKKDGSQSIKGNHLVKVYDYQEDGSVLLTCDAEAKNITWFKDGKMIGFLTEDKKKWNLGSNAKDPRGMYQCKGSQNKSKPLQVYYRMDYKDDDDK
Assay: Biacore SPR, vs template H183/L072
VALUE_TYPE: fold change of affinity (fold)
Just the number in fold, nothing appended.

The examples below pair each entry with its known result.
BINDER	fold change of affinity [fold]
H183/L072 VH A57E (antibody, name in Kabat numbering, V domains shown) VH: QVQLVESGGGLVQPGRSLRLSCAASGFTFSNAWMHWVRQAPGKGLEWVAQIKDKGNAYAEYYAPSVKGRFTISRDDSKNSIYLQMNSLKTEDTAVYYCHYVHYASASTVLPAFGVDAWGQGTTVTVSS VL: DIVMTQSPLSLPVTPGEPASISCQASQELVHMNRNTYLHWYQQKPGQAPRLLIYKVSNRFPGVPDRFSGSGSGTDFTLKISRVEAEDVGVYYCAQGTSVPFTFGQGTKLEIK	1
H183/L072 VH K52bV (antibody, name in Kabat numbering, V domains shown) VH: QVQLVESGGGLVQPGRSLRLSCAASGFTFSNAWMHWVRQAPGKGLEWVAQIKDVGNAYAAYYAPSVKGRFTISRDDSKNSIYLQMNSLKTEDTAVYYCHYVHYASASTVLPAFGVDAWGQGTTVTVSS VL: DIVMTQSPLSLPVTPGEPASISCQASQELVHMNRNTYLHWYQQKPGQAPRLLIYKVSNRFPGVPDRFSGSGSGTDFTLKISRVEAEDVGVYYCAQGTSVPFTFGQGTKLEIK	0.6
H183/L072 VH A56K (antibody, name in Kabat numbering, V domains shown) VH: QVQLVESGGGLVQPGRSLRLSCAASGFTFSNAWMHWVRQAPGKGLEWVAQIKDKGNAYKAYYAPSVKGRFTISRDDSKNSIYLQMNSLKTEDTAVYYCHYVHYASASTVLPAFGVDAWGQGTTVTVSS VL: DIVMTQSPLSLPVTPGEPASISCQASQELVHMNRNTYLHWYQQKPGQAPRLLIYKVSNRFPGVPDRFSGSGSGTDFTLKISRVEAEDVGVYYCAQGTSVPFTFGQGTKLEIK	1.3
H183/L072 VH H35R (antibody, name in Kabat numbering, V domains shown) VH: QVQLVESGGGLVQPGRSLRLSCAASGFTFSNAWMRWVRQAPGKGLEWVAQIKDKGNAYAAYYAPSVKGRFTISRDDSKNSIYLQMNSLKTEDTAVYYCHYVHYASASTVLPAFGVDAWGQGTTVTVSS VL: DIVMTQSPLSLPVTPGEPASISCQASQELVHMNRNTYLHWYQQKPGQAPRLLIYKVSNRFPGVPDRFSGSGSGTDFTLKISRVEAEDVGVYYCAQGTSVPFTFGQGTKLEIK	0

Then there is this binder:
stdin: Form field: reported fold change of affinity of H183/L072 VH S30G (antibody, name in Kabat numbering, V domains shown) VH: QVQLVESGGGLVQPGRSLRLSCAASGFTFGNAWMHWVRQAPGKGLEWVAQIKDKGNAYAAYYAPSVKGRFTISRDDSKNSIYLQMNSLKTEDTAVYYCHYVHYASASTVLPAFGVDAWGQGTTVTVSS VL: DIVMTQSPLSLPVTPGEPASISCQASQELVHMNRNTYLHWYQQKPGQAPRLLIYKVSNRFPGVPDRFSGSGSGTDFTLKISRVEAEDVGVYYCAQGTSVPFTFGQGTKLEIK
stdout: 1.1
